pKi: −log10 of the molar value.
For reference, the following pKi results for Substance-P receptor (Homo sapiens, UniProt P25103) were taken from various sources.
Output met for pKi not less than 8; output not met otherwise.

>  <molecule>
NC(=O)N1CCN(C(COCc2cc(C(F)(F)F)cc(C(F)(F)F)c2)c2ccccc2)CC1 (configuration not stated)

>  <studyTarget>
Substance-P receptor (Homo sapiens, UniProt P25103)
Sequence (P25103 whole entry): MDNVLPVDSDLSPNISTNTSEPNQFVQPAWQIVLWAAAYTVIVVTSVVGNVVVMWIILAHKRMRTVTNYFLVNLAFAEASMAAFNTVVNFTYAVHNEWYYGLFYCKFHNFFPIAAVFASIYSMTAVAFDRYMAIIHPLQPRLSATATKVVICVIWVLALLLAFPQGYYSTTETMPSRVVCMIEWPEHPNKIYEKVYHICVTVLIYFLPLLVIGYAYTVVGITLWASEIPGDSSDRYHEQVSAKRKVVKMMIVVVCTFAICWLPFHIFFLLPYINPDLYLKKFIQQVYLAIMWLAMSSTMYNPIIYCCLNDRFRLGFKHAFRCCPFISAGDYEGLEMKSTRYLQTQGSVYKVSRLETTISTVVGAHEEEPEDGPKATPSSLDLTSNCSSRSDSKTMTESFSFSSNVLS

>  <group>
not met

$$$$
>  <molecule>
CN(Cc1ccccc1)C(=O)[C@H](Cc1ccccc1)NC(=O)[C@@H]1CCCN1C(=S)NCc1ccccc1Br

>  <studyTarget>
Substance-P receptor (Homo sapiens, UniProt P25103)

>  <group>
not met

$$$$
>  <molecule>
CO/N=C(\COCc1cc(C(F)(F)F)cc(C(F)(F)F)c1)C(CCN1CCC(N2CCC(O)C2)CC1)c1ccc(Cl)c(Cl)c1 (configuration not stated)

>  <studyTarget>
Substance-P receptor (Homo sapiens, UniProt P25103)

>  <group>
met

$$$$
>  <molecule>
CN1C(=O)OC2(CCN(CC[C@@](C)(C(=O)N[C@@H](Cc3ccccc3)C(=O)NCCN)c3ccc(Cl)c(Cl)c3)CC2)c2cc(F)ccc21

>  <studyTarget>
Substance-P receptor (Homo sapiens, UniProt P25103)

>  <group>
not met

$$$$
>  <molecule>
CN(Cc1ccccc1)C(=O)[C@H](Cc1ccc2ccccc2c1)NC(=O)[C@@H]1CCCN1C(=O)Nc1cccc([N+](=O)[O-])c1

>  <studyTarget>
Substance-P receptor (Homo sapiens, UniProt P25103)

>  <group>
met

$$$$
>  <molecule>
CC(C)(C)C(=O)N1CCC2(CC1)C1C(=O)N(c3ccccc3)C(=O)C1CN2C(=O)c1cc(C(F)(F)F)cc(C(F)(F)F)c1 (configuration not stated)

>  <studyTarget>
Substance-P receptor (Homo sapiens, UniProt P25103)

>  <group>
not met

$$$$

Does the reported pKi for CN(Cc1cc(C(F)(F)F)cc(C(F)(F)F)c1)C(=O)[C@H](Cc1ccccc1)NC(=O)[C@@H]1CCCN1C(=S)NCc1ccccc1Cl fall at or above the 8 mark?
not met

Does the reported pKi for CO/N=C(\CN(C)C(=O)c1cc(OC)c(Br)c(OC)c1)C(CCN1CCC(O)(c2ccccc2)CC1)c1ccc(Cl)c(Cl)c1 (configuration not stated) fall at or above the 8 mark?
met

Does the reported pKi for CN(Cc1ccccc1)C(=O)[C@H](Cc1ccc2ccccc2c1)NC(=O)[C@@H]1CCCN1C(=O)Nc1ccc(F)cc1 fall at or above the 8 mark?
met

Does the reported pKi for CC(C)[C@@H]1NC(=O)CNC(=O)[C@@H]2CCCN2C(=O)[C@@H](Cc2c[nH]c3ccccc23)NC(=O)CNC(=O)[C@H](Cc2ccc(OC(C)(C)C)cc2)NC(=O)CNC1=O fall at or above the 8 mark?
not met

Does the reported pKi for CN(CCc1c[nH]c2ccccc12)C(=O)[C@H](Cc1ccccc1)NC(=O)[C@@H]1CCCN1/C(S)=N/Cc1ccccc1Cl fall at or above the 8 mark?
not met

Does the reported pKi for CC[C@@H](NC(=O)c1c(OCC(=O)O)c(-c2ccccc2)nc2ccccc12)c1ccccc1 fall at or above the 8 mark?
not met

* * *

pKi: −log10 of the molar value.
For reference, the following pKi results for UniProtKB P25103 were taken from various sources.
Output met for pKi not less than 8; output not met otherwise.

Worked set:
>  <compound>
CN1C(=O)OC2(CCN(CCC[C@@](C)(C(=O)N[C@H](Cc3ccccc3)C(=O)NCCN)c3ccc(Cl)c(Cl)c3)CC2)c2cc(F)ccc21

>  <group>
not met

$$$$
>  <compound>
COC(=O)c1ccccc1NC(=O)N1CCC[C@H]1C(=O)N[C@@H](Cc1ccc2ccccc2c1)C(=O)N(C)Cc1ccccc1

>  <group>
met

$$$$
>  <compound>
CO/N=C(\CN(C)Cc1cc(C(F)(F)F)cc(C(F)(F)F)c1)C(CCN1CCC(O)(c2ccccc2)CC1)c1ccc(Cl)c(Cl)c1 (stereo unspecified)

>  <group>
not met

$$$$
>  <compound>
CO/N=C(\COCc1cc(C(F)(F)F)cc(C(F)(F)F)c1)C(CCN1CCC(CN2CCCC(O)C2)CC1)c1ccc(Cl)c(Cl)c1 (stereo unspecified)

>  <group>
not met

$$$$

Does the reported pKi for CN(C(=O)C(C)(C)c1cc(C(F)(F)F)cc(C(F)(F)F)c1)c1cnc(N2CCC[C@@H]2CO)cc1-c1ccccc1Cl fall at or above the 8 mark?
met

Does the reported pKi for CN(Cc1ccccc1)C(=O)[C@H](Cc1ccccc1)NC(=O)[C@@H]1CCCN1C(=S)NCc1ccccc1Cl fall at or above the 8 mark?
not met

* * *

For reference, the following Ki results for Substance-P receptor (Homo sapiens) were taken from various sources.
Numbers only, in nM.

See these solved cases before continuing.
>  <molecule>
CO/N=C(\COCc1cc(C(F)(F)F)cc(C(F)(F)F)c1)C(CCN1CCN(CC(=O)N2CCC(O)C2)CC1)c1ccc(Cl)c(Cl)c1 (stereo not given)

>  <observationType>
Ki

>  <recordedNumber>
16

$$$$
>  <molecule>
O=C(OCc1cc(C(F)(F)F)cc(C(F)(F)F)c1)[C@H](Cc1c[nH]c2ccccc12)NC(=O)[C@H]1C[C@H](O)CN1C(=O)c1cn(CCCCc2nnn[n-]2)c2ccccc12.[K+]

>  <observationType>
Ki

>  <recordedNumber>
2.4

$$$$
>  <molecule>
CN(C(=O)C(C)(C)c1cc(C(F)(F)F)cc(C(F)(F)F)c1)c1cnc(N2CCCC[C@@H]2CO)cc1-c1ccccc1Cl

>  <observationType>
Ki

>  <recordedNumber>
2.27

$$$$

Required: Ki, one value per molecule below.
1. O=C(c1cc(C(F)(F)F)cc(C(F)(F)F)c1)N1CCC2(CC1)C1C(=O)N(c3ccccc3)C(=O)C1CN2C(=O)CN1CCOCC1 (stereo not given)
2. CCc1c(C#N)cc2ccccc2c1C(=O)N(C)C[C@@H](CCN1CCC(c2ccccc2[S@+](C)[O-])CC1)c1ccc(Cl)c(Cl)c1 (stereo in doubt; form 1)
3. CN(Cc1ccccc1)C(=O)[C@H](Cc1ccccc1)NC(=O)[C@@H]1CCCN1/C(S)=N/Cc1ccccc1
4. O=C1C2CN(C(=O)COCc3ccccc3)C3(CCNCC3)C2C(=O)N1Cc1cc(C(F)(F)F)cc(C(F)(F)F)c1 (stereo not given)

1. 8.32
2. 1.71
3. 1010
4. 2290

Required: Ki, one value per molecule below.
1. COc1cc(COCC(c2ccccc2)N2CCNCC2)cc(OC)c1OC (stereo not given)
2. COCCN[C@H]1CCN(C(=O)N(C)[C@H](C)c2cc(C(F)(F)F)cc(C(F)(F)F)c2)[C@@H](c2ccc(F)cc2C)C1
3. COc1ccc(-c2ccsc2)cc1CN[C@H]1CCCN[C@H]1c1ccccc1
4. Fc1cccc(C(COCc2cc(C(F)(F)F)cc(C(F)(F)F)c2)N2CCNCC2)c1 (stereo not given)
5. Cc1cc(F)ccc1[C@H]1C[C@@H](N2CCC2)CCN1C(=O)N(C)[C@H](C)c1cc(C(F)(F)F)cc(C(F)(F)F)c1
6. COc1ccc(S(C)(=O)=O)cc1CN[C@H]1CCCN[C@H]1c1ccccc1
7. FC(F)(F)c1cc(COCC(c2ccccc2)N2CCN(CCN3CCOCC3)CC2)cc(C(F)(F)F)c1 (stereo not given)

1. 126
2. 0.209
3. 0.0316
4. 2
5. 0.178
6. 0.501
7. 15.8

Request: Ki, test system Substance-P receptor (Homo sapiens), entry FC(F)(F)c1cc(COCC(c2ccccc2Cl)N2CCNCC2)cc(C(F)(F)F)c1 (stereo not given)
1.58
